# Tested on: UACC-62
# procedure-summary: NCI tumour cell line growth inhibition, 48 h
Calls of active or inactive are those of the source. Cut-off read from the data, not from the text of the source: active = GI50 up to about 1.1 µM and inactive = higher.
Recorded GI50 by entry
property-label: GI50

compound: CCc1cc(C(=O)OC)cn1C(=N)c1ccc(Cl)cc1
reported-value: > 100 µM (inactive)
//
compound: CC1(C)CC2(S(=O)(=O)c3ccccc3)ON1CC2S(=O)(=O)c1ccccc1 (stereo not given)
reported-value: 91.2 µM (inactive)
//
compound: O=C(NCCCNC(=O)c1ccc2c(O)c(O)ccc2c1)c1ccc2c(O)c(O)ccc2c1
reported-value: 29.9 µM (inactive)
//
compound: N#CC1N(C(=O)c2ccc(F)cc2)c2ccccc2N1C(=O)c1ccc(F)cc1
reported-value: 37.6 µM (inactive)
//
compound: Cc1ccc(C2=Nc3c(c(C)nn3-c3ccccc3)N=C(C(=O)O)C2)cc1
reported-value: > 10 µM (inactive)
//
compound: Cc1ccc(NC(=O)CC2C(=O)Nc3ccccc3[S+]2[O-])cc1C (stereo not given)
reported-value: > 100 µM (inactive)
//
compound: CC1=C(C(=O)N[C@@H](CC(C)C)C(=O)O)N2C(=O)[C@@H](NC(=O)C(N)c3ccccc3)[C@H]2SC1 (stereo not given in full)
reported-value: 79.3 µM (inactive)
//
compound: N#Cc1nc(CSCc2ccccc2)oc1N
reported-value: > 100 µM (inactive)
//
compound: COc1ccc2nc3ccc(OC)cc3c(SCc3ccc([N+](=O)[O-])cc3)c2c1
reported-value: > 100 µM (inactive)
//
compound: Cc1cc2ccc(N)nc2nc1O
reported-value: > 100 µM (inactive)
//
compound: Cc1cc(C)c(S(=O)(=O)N2CCN(S(=O)(=O)c3c(C)cc(C)cc3C)OCCCCCO2)c(C)c1
reported-value: > 100 µM (inactive)
//
compound: CCNc1nc2c(ncn2C2CC(O)C(COP(=O)(O)O)O2)c(=O)[nH]1 (stereo not given)
reported-value: > 100 µM (inactive)
//
compound: CC(C)OP(=O)(OC(C)C)/C(=N/Nc1ccccc1[N+](=O)[O-])NCCN/C(=N\Nc1ccccc1[N+](=O)[O-])P(=O)(OC(C)C)OC(C)C
reported-value: 19.2 µM (inactive)
//
compound: N=C(N)C1CN(CCCCCCCCCCN2CC(C(=N)N)C(O)=NC2=O)C(=O)N=C1O (stereo not given)
reported-value: > 10 µM (inactive)
//
compound: NS(=O)(=O)c1ccc(NC(=S)N/C=C2\C(=O)Nc3ccccc3C2=O)cc1
reported-value: > 100 µM (inactive)
//
compound: COc1ccc(OC)c(CNc2ccc(O)c(C(=O)NCCc3ccc(F)cc3)c2)c1
reported-value: 8.89 µM (inactive)
//
compound: SCCCSCCSCCCSCCS
reported-value: > 100 µM (inactive)
//
compound: O=C(c1ccccc1)c1cn(/N=C\c2ccccc2)c(=O)nc1-c1ccccc1
reported-value: > 100 µM (inactive)
//
compound: CC(C)C1CNC(=O)C2(/C=N/C(C(C)C)CNC(=O)C3(/C=N/1)CCCO3)CCCO2 (stereo not given)
reported-value: > 10 µM (inactive)
//
compound: CC1OC(c2ccc3c(OCc4ccccc4)cccc3c2O)CC(OCc2ccccc2)[C@H]1OCc1ccccc1 (stereo not given in full)
reported-value: > 10 µM (inactive)
//
compound: C[Si](C)(C)CCOCN(C(=O)C1=CCC2(CC1)OCCO2)c1ccccc1I
reported-value: 16.9 µM (inactive)
//
compound: CN(C)c1ccc(/C=C2\CCc3ccccc3C2=O)cc1Br
reported-value: 40.2 µM (inactive)
//
compound: CCC1C[N+]23CCc4c([nH]c5ccccc45)C2CC1CC3 (stereo not given)
reported-value: > 100 µM (inactive)
//
compound: C/C(=C\c1ccccc1)C(=O)NCc1ccc(C(=O)NCCC(C)C)cc1
reported-value: 15.6 µM (inactive)
//
compound: CCOC(=O)C1=CCOc2cc(N(C)C)ccc21
reported-value: > 100 µM (inactive)
//
compound: CC1=CCC(O)C=CC(C)C(O)C(C)C=C(C)C(=O)c2c(O)c(C)cc3c2C(=O)C(N)=C(NC(=O)/C=C\C=C/C=CC(C)C(O)CC1=O)C3=O (stereo not given)
reported-value: > 100 µM (inactive)
//
compound: O=C1CSC2(CCN(CCCN3c4ccccc4Sc4ccc(Cl)cc43)CC2)N1
reported-value: 11.5 µM (inactive)
//
compound: Oc1ccc(Cl)cc1C1=NC(NCN2CCN(CNC3=NC(c4ccccc4)CC(c4cc(Cl)ccc4O)=N3)CC2)=NC(c2ccccc2)C1 (stereo not given)
reported-value: 45 µM (inactive)
//
compound: COc1ccc(/C=C/c2cc(O)cc(OC)c2)cc1
reported-value: > 100 µM (inactive)
//
compound: Cc1cc(NS(=O)(=O)c2ccc(Nc3c4ccccc4nc4c(C(=O)N5CCN(CCO)CC5)ccc(Cl)c34)cc2)no1
reported-value: 42.5 µM (inactive)
//
compound: COc1ccc(N2C(=O)/C(=C/c3ccc(N(CCC#N)CCC#N)cc3)N=C2c2ccccc2)cc1
reported-value: > 100 µM (inactive)
//
compound: COc1ccc2nc3c([N+](=O)[O-])ccc4c3c(c2c1)N(CCCN(C)C)C(=S)N4CCCN(C)C
reported-value: 16 µM (inactive)
//
compound: C=CC(OCC)(OCC)OCC
reported-value: > 100 µM (inactive)
//
compound: O=C1c2ccccc2C(=O)c2sc(Nc3cccc(Cl)c3)nc21
reported-value: 1.73 µM (inactive)
//
compound: O=C(O)CN1CCCC(Cc2c[nH]c3ccccc23)C1 (stereo not given)
reported-value: > 100 µM (inactive)

Where these numbers come from: ChEMBL document CHEMBL1201862
